Ref: the supplement of paper PMC10567573

B1: MCOLN1 (parent)
chain: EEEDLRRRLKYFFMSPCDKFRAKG

# Variants of: B1
# Assay method text: protein stability index of a GFP-peptide fusion (GPS, HEK-293T) (PSI 1-6); higher = more stable;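 also: lentivirally expressed fusions sorted by FACS into six bins by GFP to DsRed ratio, PSI derived from sequencing read proportions per bin multiplied by bin number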
# Particulars: c terminus: a fixed tail appended
Each record here notes measured protein stability index.
Readout: protein stability index

INSERT INTO assay_data (sequence_input, readout, readout_value) VALUES
  ('DEEDLRRRLKYFFMSPCDKFRAKG [E1D]', 'protein stability index', 2.96),
  ('EEEDLRRRLKYFFMSPCDKGRAKG [F20G]', 'protein stability index', 3.04),
  ('EEEDGRRRLKYFFMSPCDKFRAKG [L5G]', 'protein stability index', 3.05);
